Collected IC50 values appear next to each entry.
Tested on: leukotriene pathway in human whole blood (LTB4 levels)
Test: Human whole blood assay (LTB4)
Format: cell-based
Settings: human whole blood diluted 1:1 in RPMI, stimulated with calcium ionophore A23187; single replicate
Experimental: The ability of the compounds of the present invention to treat a FLAP-mediated disease and/or disorder, or associated symptoms or complications thereof, was determined using the following procedures. Binding assay data represent the average value obtained from two different assay plates, with samples run in duplicate on each plate. Human whole blood assay data represent a single replicate on an assay plate using whole blood from at least one healthy donor. […]

Known results for molecules:
# smilesRecord, measureName, reportedResult
rows = [
    ("Nc1cnc(-c2ccc(C3CCC3)c(OCc3ccc(-c4nnn[nH]4)cc3)c2F)cn1", "IC50", "> 10000 nM"),
    ("Nc1cnc(-c2ccc(C3CCC3)c(OCc3cccc(F)c3)c2F)cn1", "IC50", "1060 nM"),
    ("Nc1cnc(-c2ccc(C3CCC3)c(OCc3ccccc3Cl)c2F)cn1", "IC50", "1570 nM"),
    ("CNc1nc(C)cc(Oc2c(C3CCC3)ccc(-c3cnc(N)cn3)c2F)n1", "IC50", "15.1 nM"),
]

Given the entry N#Cc1ccc(Oc2c(C3CCC3)ccc(-c3cnc(N)cn3)c2F)cc1 , report its measured IC50.
914 nM

And what about the molecule Nc1cnc(-c2ccc(C3CCC3)c(Oc3ccnc(Oc4c(C5CCC5)ccc(-c5cnc(N)cn5)c4F)n3)c2F)cn1 ?
287 nM

And what about the molecule Nc1cnc(-c2ccc(C3CCC3)c(OCc3cc(Cl)ccc3Cl)c2F)cn1 ?
736 nM

And what about the molecule Nc1cnc(-c2ccc(C3CCC3)c(OCCN3C(=O)c4ccccc4C3=O)c2F)cn1 ?
1000 nM
